Biological target: T1, recombinant human DKK1 (human, UniProt O94907 32-266)
T1 construct: also called Dickkopf-1; rhDKK1
T1 sequence: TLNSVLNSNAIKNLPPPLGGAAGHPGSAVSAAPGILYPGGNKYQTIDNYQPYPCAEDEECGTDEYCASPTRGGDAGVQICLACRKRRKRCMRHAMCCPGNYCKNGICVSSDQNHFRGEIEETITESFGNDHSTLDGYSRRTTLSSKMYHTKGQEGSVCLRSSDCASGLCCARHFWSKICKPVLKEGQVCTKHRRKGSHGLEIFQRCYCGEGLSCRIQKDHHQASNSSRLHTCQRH
Experiment: SPR (Biacore), DKK1 immobilised on CM5 chip, Fab as analyte
Listed below: Kd values for each entry.

>  <binder>
MOR04516 (Fab, V domains shown, Fab with C-terminal FLAG and 6xHis tags; also called MOR4516) VH: QVQLVQSGAEVKKPGESLKISCKGSGYSFTNYYIGWVRQMPGKGLEWMGIIYPTDSYTNYSPSFQGQVTISADKSISTAYLQWSSLKASDTAMYYCARGIPFRMRGFDYWGQGTLVTVSS VL: DIVLTQPPSVSGAPGQRVTISCSGSSSNIGSSFVNWYQQLPGTAPKLLIGNNSNRPSGVPDRFSGSKSGTSASLAITGLQSEDEADYYCASFDMGSPNVVFGGGTKLTVLG

>  <Kd>
2.6 nM

$$$$
>  <binder>
MOR04455 (Fab, V domains shown, Fab with C-terminal FLAG and 6xHis tags) VH: QVQLVESGGGLVQPGGSLRLSCAASGFTFSSYGMSWVRQAPGKGLEWVSGISGSGSYTYYADSVKGRFTISRDNSKNTLYLQMNSLRAEDTAVYYCARHYMDHWGQGTLVTVSS VL: DIQMTQSPSSLSASVGDRVTITCRASQDISNYLHWYQQKPGKAPKLLIYGASNLQSGVPSRFSGSGSGTDFTLTISSLQPEDFAVYYCQQYDSIPMTFGQGTKVEIKR

>  <Kd>
1.6 nM

$$$$
>  <binder>
MOR04470 (Fab, V domains shown, Fab with C-terminal FLAG and 6xHis tags) VH: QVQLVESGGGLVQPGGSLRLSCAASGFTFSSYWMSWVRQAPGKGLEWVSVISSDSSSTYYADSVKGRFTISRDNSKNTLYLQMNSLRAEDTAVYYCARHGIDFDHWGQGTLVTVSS VL: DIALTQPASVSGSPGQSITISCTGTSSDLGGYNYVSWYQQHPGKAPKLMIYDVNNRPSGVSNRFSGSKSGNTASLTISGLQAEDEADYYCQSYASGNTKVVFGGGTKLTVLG

>  <Kd>
3.2 nM

$$$$

Values compiled from patent US20120023600A1.
